Let's look at some compounds and their measured zone of inhibition at 50 µg/disc.
System: Escherichia coli
Assay: Antimicrobial activity against Escherichia coli at 50 ug/disk after 24 to 28 hrs
Type: functional
Conditions: read-out: IZ
assay_metric: zone of inhibition at 50 µg/disc (mm)

>>> print(df.to_string())
                                    compound   target_of_assay  value
 0  O=c1c2c(-c3ccccc3)c3c(nc2nc2[nH]nnn12)CCCC3  Escherichia coli     18
 1  NNc1nc2nc3c(c(-c4ccccc4)c2c(=O)[nH]1)CCCC3  Escherichia coli     13
 2  Nn1c(-c2ccccc2)cn2c(=O)c3c(-c4ccccc4)c4c(nc3nc12)CCCC4  Escherichia coli     21
 3  CCn1cc(C(=O)O)c(=O)c2ccc(C)nc21 [NALIDIXIC ACID]  Escherichia coli     24
 4  Cc1cc(C)n(-c2nc3nc4c(c(-c5ccccc5)c3c(=O)[nH]2)CCCC4)n1  Escherichia coli     19
 5  Cc1n[nH]c2nc3nc4c(c(-c5ccccc5)c3c(=O)n12)CCCC4  Escherichia coli     20
 6  Nc1n[nH]c2nc3nc4c(c(-c5ccccc5)c3c(=O)n12)CCCC4  Escherichia coli     20
 7  O=c1[nH]c(N/N=C\c2ccccc2)nc2nc3c(c(-c4ccccc4)c12)CCCC3  Escherichia coli     15
 8  CC(=O)NNc1nc2nc3c(c(-c4ccccc4)c2c(=O)[nH]1)CCCC3  Escherichia coli     20
 9  O=c1[nH]c(=S)[nH]c2nc3c(c(-c4ccccc4)c12)CCCC3  Escherichia coli     12
10  O=c1[nH]c(=S)[nH]c2nc3c(c(-c4ccc(Cl)cc4)c12)CCCC3  Escherichia coli     13
